Origin of measurements: patent US7449463B2

Listed next: entries and their corresponding melting point.

{"columns": ["Compound", "Unit of measurement", "melting point"],
 "data": [
  ["Cc1cc(C)c2c(c1)nc(NCCCN1CCOCC1)n2Cc1nc(C)ccc1O", "°C", 234],
  ["Cc1ccc(O)c(Cn2c(NCCCN3CCOCC3)nc3ccc(CNc4c(C)cc(CCC#N)cc4C)cc32)n1", "°C", 114],
  ["Cc1ccc(CCCO)c(NCc2ccc3nc(NCCCN4CCOCC4)n(Cc4cccc5c4ncn5C)c3c2)c1", "°C", 198],
  ["Cc1cc(C)c2nc(NCCCN3CCOC(CC(N)=O)C3)n(Cc3nc(C)ccc3O)c2c1 (centres unmarked)", "°C", 148],
  ["Cc1cc(C)cc(N(CCN)Cc2ccc3nc(NCCCN4CCOCC4)n(Cc4nc(C)ccc4O)c3c2)c1", "°C", 196],
  ["Cc1ccc(CCCO)c(NCc2ccc3nc(NCCCN4CCOCC4)n(Cc4cccc5cccnc45)c3c2)c1", "°C", 165],
  ["Cc1ccc(CCO)c(NCc2ccc3nc(NCCCN4CCOCC4)n(C4CCCc5nc(C)c(C)nc54)c3c2)c1 (centres unmarked)", "°C", 162],
  ["Cc1ccc(CCCO)c(NCc2ccc3nc(NCCCN4CCOCC4)n(Cc4cccc(Br)n4)c3c2)c1", "°C", 141]
]}

---

Value type: melting point

{"columns": ["Compound", "Result"],
 "data": [
  ["Cc1cccc(NC(=O)c2ccc3nc(NCCCN4CCOCC4)n(Cc4nc(C)ccc4O)c3c2)c1 [Compound 159]", "168 °C"],
  ["CCn1ncc(Cc2ccc3nc(NCCCN4CCOCC4)n(Cc4nc(C)ccc4O)c3c2)c1NCCO [Compound 152]", "168 °C"],
  ["Cc1ccc(S(=O)(=O)CCO)c(NCc2ccc3nc(NCCCN4CCOCC4)n(Cc4nc(C)ccc4O)c3c2)c1 [Compound 12]", "170 °C"],
  ["Cc1ccc(O)c(Cn2c(NC3CCNC(CCN4CCOCC4)C3)nc3ccc(C=Cc4ccccc4)cc32)n1 (stereo not drawn) [Compound 169]", "224 °C"],
  ["Cc1cc(C)cc(N(CCCC(N)=O)Cc2ccc3nc(NCCCN4CCOCC4)n(Cc4cccc(Br)n4)c3c2)c1 [Compound 261]", "82 °C"],
  ["Cc1cc(C)cc(N(CCCC(N)=O)Cc2ccc3nc(NCCCN4CCOCC4)n(Cc4cccc5c4ncn5C)c3c2)c1 [Compound 230]", "206 °C"],
  ["Cc1cc(C)cc(NCc2ccc3nc(NC4CCNC(CCN5CCOCC5)C4)n(Cc4nc(C)ccc4O)c3c2)c1 (stereo not drawn) [Compound 163]", "150 °C"],
  ["Cc1cc(C)cc(N(CCCC(N)=O)Cc2ccc3nc(NCCCN4CCOCC4)n(Cc4nc(C)ccc4O)c3c2)c1 [Compound 59]", "170 °C"],
  ["CCOC(=O)CCCN(Cc1ccc2nc(NCCCN3CCOCC3)n(Cc3nc(C)ccc3O)c2c1)c1cc(C)cc(C)c1 [Compound 71]", "130 °C"],
  ["Cc1cc(C)cc(N(CCO)Cc2ccc3nc(NCCCN4CCOCC4)n(Cc4nc(C)ccc4O)c3c2)c1 [Compound 58]", "180 °C"],
  ["Cc1cc(C)cc(N(CCCC(N)=O)Cc2ccc3nc(NCCCN4CCOCC4)n(Cc4cccc5cccnc45)c3c2)c1 [Compound 223]", "154 °C"],
  ["Cc1cc(C)cc(N(CCCC(=O)O)Cc2ccc3nc(NCCCN4CCOCC4)n(Cc4nc(C)ccc4O)c3c2)c1 [Compound 62]", "121 °C"],
  ["Cc1cc(C)cc(N(CCO)Cc2ccc3nc(NCCCN4CCOCC4)n(Cc4nc(C)c(C)nc4C)c3c2)c1 [Compound 233]", "140 °C"],
  ["Cc1cccc(NC(=O)c2ccc3c(c2)nc(NCCCN2CCOCC2)n3Cc2nc(C)ccc2O)c1 [Compound 158]", "170 °C"],
  ["Cc1cc(C)cc(N(CCCC(N)=O)Cc2ccc3nc(NCCCN4CCOCC4)n(C4CCCc5nc(C)c(C)nc54)c3c2)c1 (stereo not drawn) [Compound 213]", "109 °C"]
]}
